target: Chimeric OX40 construct 1546 (human; mouse) (UniProt P43489); assay: flow cytometry, 293-F cells transfected with the construct
Sequence (P43489 other isoform, or with tags, fused parts or gaps mutant, form in doubt): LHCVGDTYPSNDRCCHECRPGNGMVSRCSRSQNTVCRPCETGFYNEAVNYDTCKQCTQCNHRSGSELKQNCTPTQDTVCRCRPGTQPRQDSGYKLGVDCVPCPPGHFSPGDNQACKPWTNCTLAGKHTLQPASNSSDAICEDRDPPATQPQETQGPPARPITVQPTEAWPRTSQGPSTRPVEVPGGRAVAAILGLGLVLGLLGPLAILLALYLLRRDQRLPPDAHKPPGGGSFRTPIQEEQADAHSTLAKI
OBSERVATION TYPE: relative MFI (fold over isotype control)
Respond with the number and no other words.

Please review the following examples before continuing.
BINDER	relative MFI (fold over isotype control)
1526/1527 (antibody, V domains shown) VH: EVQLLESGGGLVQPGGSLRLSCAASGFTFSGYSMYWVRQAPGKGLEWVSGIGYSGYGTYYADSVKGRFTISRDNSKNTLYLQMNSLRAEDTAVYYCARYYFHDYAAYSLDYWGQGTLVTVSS VL: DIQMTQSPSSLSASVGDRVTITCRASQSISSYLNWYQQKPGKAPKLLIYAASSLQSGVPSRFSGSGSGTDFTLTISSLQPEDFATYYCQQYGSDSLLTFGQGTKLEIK	0.9
1166/1167 (antibody, V domains shown) VH: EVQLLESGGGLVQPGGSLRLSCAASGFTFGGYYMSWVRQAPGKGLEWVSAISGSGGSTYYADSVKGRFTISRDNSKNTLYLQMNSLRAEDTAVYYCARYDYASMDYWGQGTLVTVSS VL: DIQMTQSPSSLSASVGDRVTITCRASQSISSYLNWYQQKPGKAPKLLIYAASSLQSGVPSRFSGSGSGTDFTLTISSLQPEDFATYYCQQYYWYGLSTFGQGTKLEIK	0.8

# input for lookup
Sample 1524/1525 (antibody, V domains shown) VH: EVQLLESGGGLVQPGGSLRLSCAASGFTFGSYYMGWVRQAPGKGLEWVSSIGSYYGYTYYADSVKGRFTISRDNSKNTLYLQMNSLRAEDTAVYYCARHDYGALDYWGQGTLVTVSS VL: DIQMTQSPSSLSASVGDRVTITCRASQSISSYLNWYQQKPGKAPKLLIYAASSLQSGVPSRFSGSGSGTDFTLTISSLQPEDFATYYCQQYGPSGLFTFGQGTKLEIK ; relative MFI (fold over isotype control) observed: 0.9

Data origin: patent US20190161555A1
